- ASSAYED_TARGET: Human PDE9 (PDE9A2) (Homo sapiens (Human), UniProt O76083)
- Sequence (O76083 other isoform, or with tags, fused parts or gaps): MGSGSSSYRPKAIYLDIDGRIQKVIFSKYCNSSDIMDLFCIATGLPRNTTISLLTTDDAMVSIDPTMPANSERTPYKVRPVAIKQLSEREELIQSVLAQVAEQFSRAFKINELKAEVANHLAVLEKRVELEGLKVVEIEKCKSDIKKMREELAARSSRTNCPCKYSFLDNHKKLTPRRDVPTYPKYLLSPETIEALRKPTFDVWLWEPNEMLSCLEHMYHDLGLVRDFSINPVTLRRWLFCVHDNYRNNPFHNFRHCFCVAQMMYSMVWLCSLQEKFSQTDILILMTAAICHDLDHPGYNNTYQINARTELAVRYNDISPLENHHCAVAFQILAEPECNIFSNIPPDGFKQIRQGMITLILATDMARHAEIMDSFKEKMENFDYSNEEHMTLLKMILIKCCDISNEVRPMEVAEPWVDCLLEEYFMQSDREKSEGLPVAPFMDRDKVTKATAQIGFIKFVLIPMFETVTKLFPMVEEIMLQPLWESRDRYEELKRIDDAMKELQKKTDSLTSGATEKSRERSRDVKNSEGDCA
Reported Ki is given for each of the following molecules.
Give the value in nM but do not write nM after it.

Check out these entries, answers already filled in.
CCC(c1ncc(C(F)F)cn1)N(C)c1nc2c(c(C#N)nn2C(C)c2ccc(C(F)(F)F)nc2)c(=O)[nH]1 (single isomer, unassigned) [Example 20] | 1.57
CC(c1ccc(C(F)(F)F)nc1)n1nc(C#N)c2c(=O)[nH]c(N3CCC3c3ccc(F)cc3)nc21 (single isomer, unassigned) [Example 57] | 1.05

Switching to the query record.
Ask: What measured Ki is associated with CC(c1ccc(C(F)(F)F)nc1)n1nc(C#N)c2c(=O)[nH]c(N(C)C(c3ncccn3)C3CCC3)nc21 (single isomer, unassigned) [Example 31] on Human PDE9 (PDE9A2) (Homo sapiens (Human), UniProt O76083)?
Result: 1.2
